Origin of measurements: patent US12576099B2

Test system: BALB/C mice
assay: In vivo imaging of Fluc-mRNA LNP expression in mice
testParameters: 12 h; 5 μg Fluc-mRNA LNP intramuscular, mice

compound	Total radiation intensity
CO[C@@H]1[C@H](OP(=O)(O)OC[C@H]2O[C@@H](n3cnc4c(=O)[nH]c(N)nc43)[C@H](O)[C@@H]2O)[C@@H](COP(=O)(O)OP(=O)(O)OP(=O)(O)OC[C@H]2O[C@@H]([n+]3cn(C)c4c(=O)[nH]c(N)nc43)[C@H](O)[C@@H]2C(C)NC(C)=O)O[C@H]1n1cnc2c(N)ncnc21 (stereo partly drawn)	6.03 ×108 p/s
CO[C@@H]1[C@H](OP(=O)(O)OC[C@H]2O[C@@H](n3cnc4c(=O)[nH]c(N)nc43)[C@H](O)[C@@H]2O)[C@@H](COP(=O)(O)OP(=O)(O)OP(=O)(O)OC[C@H]2O[C@@H]([n+]3cn(C)c4c(=O)[nH]c(N)nc43)[C@H](O)[C@@H]2C(F)F)O[C@H]1n1cnc2c(N)ncnc21	10.55 ×108 p/s
CO[C@@H]1[C@H](OP(=O)(O)OC[C@H]2O[C@@H](n3cnc4c(=O)[nH]c(N)nc43)[C@H](O)[C@@H]2O)[C@@H](COP(=O)(O)OP(=O)(O)OP(=O)(O)OC[C@@]2(C(F)F)O[C@@H]([n+]3cn(C)c4c(=O)[nH]c(N)nc43)[C@H](O)[C@@H]2O)O[C@H]1n1cnc2c(N)ncnc21	6.65 ×108 p/s
CO[C@@H]1[C@H](OP(=O)(O)OC[C@H]2O[C@@H](n3cnc4c(=O)[nH]c(N)nc43)[C@H](O)[C@@H]2O)[C@@H](COP(=O)(O)OP(=O)(O)OP(=O)(O)OC[C@H]2O[C@@H]([n+]3cn(C)c4c(=O)[nH]c(N)nc43)[C@H](O)[C@@H]2C(C)F)O[C@H]1n1cnc2c(N)ncnc21 (stereo partly drawn)	5.84 ×108 p/s
COC[C@@H]1[C@H](OP(=O)(O)OC[C@H]2O[C@@H](n3cnc4c(=O)[nH]c(N)nc43)[C@H](O)[C@@H]2O)[C@@H](COP(=O)(O)OP(=O)(O)OP(=O)(O)OC[C@H]2O[C@@H]([n+]3cn(C)c4c(=O)[nH]c(N)nc43)[C@H](O)[C@@H]2O)O[C@H]1n1cnc2c(N)ncnc21	7.63 ×108 p/s
COC(C)[C@H]1[C@@H](O)[C@H]([n+]2cn(C)c3c(=O)[nH]c(N)nc32)O[C@@H]1COP(=O)(O)OP(=O)(O)OP(=O)(O)OC[C@H]1O[C@@H](n2cnc3c(N)ncnc32)[C@H](OC)[C@@H]1OP(=O)(O)OC[C@H]1O[C@@H](n2cnc3c(=O)[nH]c(N)nc32)[C@H](O)[C@@H]1O (stereo partly drawn)	6.87 ×108 p/s
CO[C@@H]1[C@H](OP(=O)(O)OC[C@H]2O[C@@H](n3cnc4c(=O)[nH]c(N)nc43)[C@H](O)[C@@H]2O)[C@@H](COP(=O)(O)OP(=O)(O)OP(=O)(O)OC[C@H]2O[C@@H]([n+]3cn(C)c4c(=O)[nH]c(N)nc43)[C@H](O)[C@@H]2O)O[C@H]1n1cnc2c(N)ncnc21 [N-7113, reference compound]	4.33 ×108 p/s
CO[C@@H]1[C@H](OP(=O)(O)OC[C@H]2O[C@@H](n3cnc4c(=O)[nH]c(N)nc43)[C@H](O)[C@@H]2O)[C@@H](COP(=O)(O)OP(=O)(O)OP(=O)(O)OC[C@H]2OC([n+]3cn(C)c4c(=O)[nH]c(N)nc43)[C@H](O)[C@@H](O)[C@@H]2O)O[C@H]1n1cnc2c(N)ncnc21 (stereo partly drawn)	0.96 ×108 p/s
CO[C@@H]1[C@H](OP(=O)(O)OC[C@H]2O[C@@H](n3cnc4c(=O)[nH]c(N)nc43)[C@H](O)[C@@H]2O)[C@@H](COP(=O)(O)OP(=O)(O)OP(=O)(O)OC[C@@]2(CF)O[C@@H]([n+]3cn(C)c4c(=O)[nH]c(N)nc43)[C@H](O)[C@@H]2O)O[C@H]1n1cnc2c(N)ncnc21	6.28 ×108 p/s

* * *

Tested on: BALB/C mice
assay: In vivo imaging of Fluc-mRNA LNP expression in mice
testParameters: 96 h; 5 μg Fluc-mRNA LNP intramuscular, mice

molecule	targetOrSystem	Total radiation intensity
CCO[C@@H]1[C@H](OP(=O)(O)OC[C@H]2O[C@@H](n3cnc4c(=O)[nH]c(N)nc43)[C@H](O)[C@@H]2O)[C@@H](COP(=O)(O)OP(=O)(O)OP(=O)(O)OC[C@H]2O[C@@H]([n+]3cn(C)c4c(=O)[nH]c(N)nc43)[C@H](O)[C@@H]2O)O[C@H]1n1cnc2c(N)ncnc21 [CAP-2′O-ethyl, reference compound]	BALB/C mice	0.09 ×108 p/s
COC(C)[C@H]1[C@@H](O)[C@H]([n+]2cn(C)c3c(=O)[nH]c(N)nc32)O[C@@H]1COP(=O)(O)OP(=O)(O)OP(=O)(O)OC[C@H]1O[C@@H](n2cnc3c(N)ncnc32)[C@H](OC)[C@@H]1OP(=O)(O)OC[C@H]1O[C@@H](n2cnc3c(=O)[nH]c(N)nc32)[C@H](O)[C@@H]1O (stereo partly shown)	BALB/C mice	0.11 ×108 p/s
CO[C@@H]1[C@H](OP(=O)(O)OC[C@H]2O[C@@H](n3cnc4c(=O)[nH]c(N)nc43)[C@H](O)[C@@H]2O)[C@@H](COP(=O)(O)OP(=O)(O)OP(=O)(O)OC[C@H]2OC([n+]3cn(C)c4c(=O)[nH]c(N)nc43)[C@H](O)[C@@H](O)[C@@H]2O)O[C@H]1n1cnc2c(N)ncnc21 (stereo partly shown)	BALB/C mice	0.04 ×108 p/s
COC[C@@H]1[C@H](OP(=O)(O)OC[C@H]2O[C@@H](n3cnc4c(=O)[nH]c(N)nc43)[C@H](O)[C@@H]2O)[C@@H](COP(=O)(O)OP(=O)(O)OP(=O)(O)OC[C@H]2O[C@@H]([n+]3cn(C)c4c(=O)[nH]c(N)nc43)[C@H](O)[C@@H]2O)O[C@H]1n1cnc2c(N)ncnc21	BALB/C mice	0.31 ×108 p/s
COC[C@]1(COP(=O)(O)OP(=O)(O)OP(=O)(O)OC[C@H]2O[C@@H](n3cnc4c(N)ncnc43)[C@H](OC)[C@@H]2OP(=O)(O)OC[C@H]2O[C@@H](n3cnc4c(=O)[nH]c(N)nc43)[C@H](O)[C@@H]2O)O[C@@H]([n+]2cn(C)c3c(=O)[nH]c(N)nc32)[C@H](O)[C@@H]1O	BALB/C mice	0.35 ×108 p/s
CNc1ncnc2c1ncn2[C@@H]1O[C@H](COP(=O)(O)OP(=O)(O)OP(=O)(O)OC[C@H]2O[C@@H]([n+]3cn(C)c4c(=O)[nH]c(N)nc43)[C@H](O)[C@@H]2O)[C@@H](OP(=O)(O)OC[C@H]2O[C@@H](n3cnc4c(=O)[nH]c(N)nc43)[C@H](O)[C@@H]2O)[C@H]1OC [m6A, reference compound]	BALB/C mice	0.08 ×108 p/s
CO[C@@H]1[C@H](OP(=O)(O)OC[C@H]2O[C@@H](n3cnc4c(=O)[nH]c(N)nc43)[C@H](O)[C@@H]2O)[C@@H](COP(=O)(O)OP(=O)(O)OP(=O)(O)OC[C@H]2O[C@@H]([n+]3cn(C)c4c(=O)[nH]c(N)nc43)[C@H](O)[C@@H]2C(C)F)O[C@H]1n1cnc2c(N)ncnc21 (stereo partly shown)	BALB/C mice	0.14 ×108 p/s
CO[C@@H]1[C@H](OP(=O)(O)OC[C@H]2O[C@@H](n3cnc4c(=O)[nH]c(N)nc43)[C@H](O)[C@@H]2O)[C@@H](COP(=O)(O)OP(=O)(O)OP(=O)(O)OC[C@@]2(C(F)F)O[C@@H]([n+]3cn(C)c4c(=O)[nH]c(N)nc43)[C@H](O)[C@@H]2O)O[C@H]1n1cnc2c(N)ncnc21	BALB/C mice	0.25 ×108 p/s
CO[C@@H]1[C@H](OP(=O)(O)OC[C@H]2O[C@@H](n3cnc4c(=O)[nH]c(N)nc43)[C@H](O)[C@@H]2O)[C@@H](COP(=O)(O)OP(=O)(O)OP(=O)(O)OC[C@H]2O[C@@H]([n+]3cn(C)c4c(=O)[nH]c(N)nc43)[C@H](O)[C@@H]2C(F)F)O[C@H]1n1cnc2c(N)ncnc21	BALB/C mice	0.27 ×108 p/s
CO[C@@H]1[C@H](OP(=O)(O)OC[C@H]2O[C@@H](n3cnc4c(=O)[nH]c(N)nc43)[C@H](O)[C@@H]2O)[C@@H](COP(=O)(O)OP(=O)(O)OP(=O)(O)OC[C@H]2O[C@@H]([n+]3cn(C)c4c(=O)[nH]c(N)nc43)[C@H](O)[C@@H]2O)O[C@H]1n1cnc2c(N)ncnc21 [N-7113, reference compound]	BALB/C mice	0.05 ×108 p/s
CO[C@@H]1[C@H](OP(=O)(O)OC[C@H]2O[C@@H](n3cnc4c(=O)[nH]c(N)nc43)[C@H](O)[C@@H]2O)[C@@H](COP(=O)(O)OP(=O)(O)OP(=O)(O)OC[C@H]2O[C@@H]([n+]3cn(C)c4c(=O)[nH]c(N)nc43)[C@H](O)[C@]2(C)NC(C)=O)O[C@H]1n1cnc2c(N)ncnc21	BALB/C mice	0.11 ×108 p/s
CO[C@@H]1[C@H](OP(=O)(O)OC[C@H]2O[C@@H](n3cnc4c(=O)[nH]c(N)nc43)[C@H](O)[C@@H]2O)[C@@H](COP(=O)(O)OP(=O)(O)OP(=O)(O)OC[C@@]2(OC)O[C@@H]([n+]3cn(C)c4c(=O)[nH]c(N)nc43)[C@H](O)[C@@H]2O)O[C@H]1n1cnc2c(N)ncnc21 [compound 5227, reference compound]	BALB/C mice	0.07 ×108 p/s
CCN(CC)C(=O)[C@H]1[C@@H](O)[C@H]([n+]2cn(C)c3c(=O)[nH]c(N)nc32)O[C@@H]1COP(=O)(O)OP(=O)(O)OP(=O)(O)OC[C@H]1O[C@@H](n2cnc3c(N)ncnc32)[C@H](OC)[C@@H]1OP(=O)(O)OC[C@H]1O[C@@H](n2cnc3c(=O)[nH]c(N)nc32)[C@H](O)[C@@H]1O	BALB/C mice	0.27 ×108 p/s
